Molecular target: JAK2 (Homo sapiens (Human))
Sequence (O60674 808-1132): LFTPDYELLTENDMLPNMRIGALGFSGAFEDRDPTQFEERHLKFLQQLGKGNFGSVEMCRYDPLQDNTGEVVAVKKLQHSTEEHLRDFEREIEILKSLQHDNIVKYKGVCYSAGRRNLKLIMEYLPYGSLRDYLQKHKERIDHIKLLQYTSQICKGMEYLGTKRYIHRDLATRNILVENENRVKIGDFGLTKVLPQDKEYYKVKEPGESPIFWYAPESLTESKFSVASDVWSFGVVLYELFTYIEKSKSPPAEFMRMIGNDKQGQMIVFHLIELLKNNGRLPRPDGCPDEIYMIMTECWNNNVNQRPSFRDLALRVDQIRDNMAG
Test: JAK enzymatic assay (peptide mobility shift), JAK2
Settings: recombinant JAK2 2 nM, JAKtide peptide, 150 minutes
endpoint_name: IC50

CN(c1ncnc2[nH]ccc12)[C@H]1CC[C@H](CS(=O)(=O)N2CC[C@@](O)(CSc3ccccn3)C2)CC1 [Example 97]
13.1 nM
CN(c1ncnc2[nH]ccc12)[C@H]1CC[C@H](CS(=O)(=O)N2C[C@H](CO)[C@H](S(C)(=O)=O)C2)CC1 [Example 33]
32.2 nM
CCN(CC)C(=O)C1CCN(S(=O)(=O)C[C@H]2CC[C@H](N(C)c3ncnc4[nH]ccc34)CC2)CC1 [Example 52]
115 nM
CO[C@@H]1CCN(S(=O)(=O)C[C@H]2CC[C@H](N(C)c3ncnc4[nH]ccc34)CC2)C1 [Example 68]
41.8 nM
CN(c1ncnc2[nH]ccc12)[C@H]1CC[C@H](CS(=O)(=O)N2CCC[C@H](O)C2)CC1 [Example 58]
18 nM
CC1CN(S(=O)(=O)C[C@H]2CC[C@H](N(C)c3ncnc4[nH]ccc34)CC2)CCN1C (some centres unmarked) [Example 38]
126 nM
CN(c1ncnc2[nH]ccc12)[C@H]1CC[C@H](CS(=O)(=O)N2CCC(c3nc(CS(C)(=O)=O)no3)CC2)CC1 [Example 50]
65.8 nM
COC[C@H]1CCCN1S(=O)(=O)C[C@H]1CC[C@H](N(C)c2ncnc3[nH]ccc23)CC1 [Example 69]
56.2 nM
C[C@H]1CCCN(S(=O)(=O)C[C@H]2CC[C@H](N(C)c3ncnc4[nH]ccc34)CC2)C1 [Example 61]
72.2 nM
CN(c1ncnc2[nH]ccc12)[C@H]1CC[C@H](CS(=O)(=O)N2C[C@@H](O)[C@H](c3ccccc3)C2)CC1 [Example 29]
15 nM
CCOP(=O)(OCC)O[C@@H]1CCCN(S(=O)(=O)C[C@H]2CC[C@H](N(C)c3ncnc4[nH]ccc34)CC2)C1 [Example 140]
0.116 nM
CN(c1ncnc2[nH]ccc12)[C@H]1CC[C@H](CS(=O)(=O)N2CCC[C@@](C)(O)C2)CC1 [Example 65]
40.9 nM
CN(c1ncnc2[nH]ccc12)[C@H]1CC[C@H](CS(=O)(=O)N2CCC[C@H](CS(C)(=O)=O)C2)CC1 [Example 67]
92.2 nM
COCCOC1CCCN(S(=O)(=O)C[C@H]2CC[C@H](N(C)c3ncnc4[nH]ccc34)CC2)C1 (some centres unmarked) [Example 139]
0.00405 nM
CN(c1ncnc2[nH]ccc12)[C@H]1CC[C@H](CS(=O)(=O)N2CC(c3nnn[nH]3)C2)CC1 [Example 113]
9.99 nM
CN(c1ncnc2[nH]ccc12)[C@H]1CC[C@H](CS(=O)(=O)N2CC[C@H](Cc3cnccn3)C2)CC1 [Example 102]
28.6 nM
COC(=O)NC1CN(S(=O)(=O)C[C@H]2CC[C@H](N(C)c3ncnc4[nH]ccc34)CC2)C1 [Example 117]
32.4 nM
CN(c1ncnc2[nH]ccc12)[C@H]1CC[C@H](CS(=O)(=O)N2CCCC(COc3ccc(F)cc3)C2)CC1 (some centres unmarked) [Example 15]
32 nM
Cc1nnc(C2CCCN(S(=O)(=O)C[C@H]3CC[C@H](N(C)c4ncnc5[nH]ccc45)CC3)C2)o1 (some centres unmarked) [Example 18]
19.5 nM
CN(c1ncnc2[nH]ccc12)[C@H]1CC[C@H](CS(=O)(=O)N2C[C@@H](O)[C@H](C#N)C2)CC1 [Example 36]
18.7 nM
CN(c1ncnc2[nH]ccc12)[C@H]1CC[C@H](CS(=O)(=O)N2CC[C@](CO)(CCO)C2)CC1 [Example 95]
45.8 nM
CN(c1ncnc2[nH]ccc12)[C@H]1CC[C@H](CS(=O)(=O)N2CC[C@@H](F)C2)CC1 [Example 34]
16.7 nM
CN(c1ncnc2[nH]ccc12)[C@H]1CC[C@H](CS(=O)(=O)N2CCCC(Cc3ccccn3)C2)CC1 (some centres unmarked) [Example 21]
33 nM
CN(c1ncnc2[nH]ccc12)[C@H]1CC[C@H](CS(=O)(=O)N2CC[C@H](O)[C@H](O)C2)CC1 [Example 22]
32.5 nM
CN(c1ncnc2[nH]ccc12)[C@H]1CC[C@H](CS(=O)(=O)N2CC[C@H](NC(=O)C(F)(F)F)C2)CC1 [Example 75]
62.2 nM
CN(c1ncnc2[nH]ccc12)[C@H]1CC[C@H](CS(=O)(=O)N2CC(c3ncccn3)C2)CC1 [Example 110]
22.6 nM
CN(c1ncnc2[nH]ccc12)[C@H]1CC[C@H](CS(=O)(=O)N2CC[C@@H](CC#N)C2)CC1 [Example 35]
52.6 nM
CN(c1ncnc2[nH]ccc12)[C@H]1CC[C@H](CS(=O)(=O)N2CC[C@H](F)C2)CC1 [Example 70]
36.4 nM
Cc1cccc(C[C@H]2CCCN2S(=O)(=O)C[C@H]2CC[C@H](N(C)c3ncnc4[nH]ccc34)CC2)n1 [Example 106]
24.3 nM

---

Molecular target: JAK3 (Homo sapiens (Human), UniProt P52333)
Sequence (P52333 781-1124): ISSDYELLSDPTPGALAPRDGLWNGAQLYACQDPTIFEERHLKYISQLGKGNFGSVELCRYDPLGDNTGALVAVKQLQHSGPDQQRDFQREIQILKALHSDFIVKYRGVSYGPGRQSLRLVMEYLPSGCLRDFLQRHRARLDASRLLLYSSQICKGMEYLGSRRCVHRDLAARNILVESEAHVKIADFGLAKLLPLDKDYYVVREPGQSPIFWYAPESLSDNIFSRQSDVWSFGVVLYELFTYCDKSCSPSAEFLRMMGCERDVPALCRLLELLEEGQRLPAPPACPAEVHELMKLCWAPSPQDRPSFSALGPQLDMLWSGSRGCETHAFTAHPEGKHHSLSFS
Assay: JAK enzymatic assay (peptide mobility shift), JAK3
Format: biochemical
Conditions: recombinant JAK3 1 nM, JAKtide peptide, 90 minutes
Category scheme (IC50): bin 1 = under 200 nM, bin 2 = from 200 nM up to 400 nM, bin 3 = 400 nM and over

CN(c1ncnc2[nH]ccc12)[C@H]1CC[C@H](CS(=O)(=O)N2CC[C@@H](c3ccccc3)C2)CC1
bin 3
CN(c1ncnc2[nH]ccc12)[C@H]1CC[C@H](CS(=O)(=O)N2C[C@@H](O)[C@H](C#N)C2)CC1
bin 1
C[C@@H]1C[C@@H](CS(=O)(=O)N2CCC[C@@H](O)C2)CC[C@@H]1N(C)c1ncnc2[nH]ccc12
bin 1
CN(c1ncnc2[nH]ccc12)[C@H]1CC[C@H](CS(=O)(=O)N2CCC2)CC1
bin 2
CC(=O)C1CCCN(S(=O)(=O)C[C@H]2CC[C@H](N(C)c3ncnc4[nH]ccc34)CC2)C1 (some centres unmarked)
bin 2
CN(c1ncnc2[nH]ccc12)[C@H]1CC[C@H](CS(=O)(=O)N2CCC(N)CC2)CC1
bin 3
C[C@@H]1C[C@@H](CS(=O)(=O)N2CCC(CO)CC2)CC[C@@H]1N(C)c1ncnc2[nH]ccc12
bin 1
CN(c1ncnc2[nH]ccc12)[C@H]1CC[C@H](CS(=O)(=O)N2CC[C@](CO)(CCO)C2)CC1
bin 3
COC[C@H]1CCCN1S(=O)(=O)C[C@H]1CC[C@H](N(C)c2ncnc3[nH]ccc23)CC1
bin 2
CN(c1ncnc2[nH]ccc12)[C@H]1CC[C@H](CS(=O)(=O)N2CCC[C@H](O)C2)CC1 [Example 14]
bin 1
Cc1nnc(C2CCCN(S(=O)(=O)C[C@H]3CC[C@H](N(C)c4ncnc5[nH]ccc45)CC3)C2)o1 (some centres unmarked)
bin 2
C[C@H]1CCCN(S(=O)(=O)C[C@H]2CC[C@H](N(C)c3ncnc4[nH]ccc34)CC2)C1
bin 3
CN(c1ncnc2[nH]ccc12)[C@H]1CC[C@H](CS(=O)(=O)N2CCC[C@H](C(N)=O)C2)CC1
bin 2
CCOC1CCCN(S(=O)(=O)CC2CCC(N(C)c3ncnc4[nH]ccc34)CC2)C1 (centres unmarked)
bin 1
CC(C)COC1CCCN(S(=O)(=O)C[C@H]2CC[C@H](N(C)c3ncnc4[nH]ccc34)CC2)C1 (some centres unmarked)
bin 1
CC1CCN(S(=O)(=O)C[C@H]2CC[C@H](N(C)c3ncnc4[nH]ccc34)CC2)CC1
bin 3
CCN(CC)C(=O)CO[C@@H]1CCN(S(=O)(=O)C[C@H]2CC[C@H](N(C)c3ncnc4[nH]ccc34)CC2)C1
bin 3
CN(c1ncnc2[nH]ccc12)[C@H]1CC[C@H](CS(=O)(=O)N2CCC[C@H](O)C2)CC1 [Example 58]
bin 1
CCc1ccc(COC[C@H]2CCN(S(=O)(=O)C[C@H]3CC[C@H](N(C)c4ncnc5[nH]ccc45)CC3)C2)nc1
bin 3
CC(=O)NCC1CCCN(S(=O)(=O)C[C@H]2CC[C@H](N(C)c3ncnc4[nH]ccc34)CC2)C1 (some centres unmarked)
bin 1
CC[C@H](O)C1CCN(S(=O)(=O)C[C@H]2CC[C@H](N(C)c3ncnc4[nH]ccc34)CC2)CC1
bin 3
Cc1cccc(C[C@H]2CCCN2S(=O)(=O)C[C@H]2CC[C@H](N(C)c3ncnc4[nH]ccc34)CC2)n1
bin 2
CN(c1ncnc2[nH]ccc12)[C@H]1CC[C@H](CS(=O)(=O)N2CC(F)C2)CC1
bin 1
CN(c1ncnc2[nH]ccc12)[C@H]1CC[C@H](CS(=O)(=O)N2C[C@H](CO)[C@H](S(C)(=O)=O)C2)CC1
bin 2
CCN1CCN(C[C@H]2CCN(S(=O)(=O)C[C@H]3CC[C@H](N(C)c4ncnc5[nH]ccc45)CC3)C2)C(=O)C1=O
bin 3
CN(c1ncnc2[nH]ccc12)[C@H]1CC[C@H](CS(=O)(=O)N2CCC[C@@H](O)C2)CC1
bin 1
CN(c1ncnc2[nH]ccc12)[C@H]1CC[C@H](CS(=O)(=O)N2CC[C@@](O)(Cn3cccn3)C2)CC1
bin 1
CN(c1ncnc2[nH]ccc12)[C@H]1CC[C@H](CS(=O)(=O)N2CCN(c3ccccn3)CC2)CC1
bin 2
CN(c1ncnc2[nH]ccc12)[C@H]1CC[C@H](CS(=O)(=O)N2CC[C@](C)(O)C2)CC1
bin 2
